Answer each item with its documented IC50.
system under test: ABL1 (64-515) (Homo sapiens (Human), UniProt P00519)
Sequence (P00519 64-515): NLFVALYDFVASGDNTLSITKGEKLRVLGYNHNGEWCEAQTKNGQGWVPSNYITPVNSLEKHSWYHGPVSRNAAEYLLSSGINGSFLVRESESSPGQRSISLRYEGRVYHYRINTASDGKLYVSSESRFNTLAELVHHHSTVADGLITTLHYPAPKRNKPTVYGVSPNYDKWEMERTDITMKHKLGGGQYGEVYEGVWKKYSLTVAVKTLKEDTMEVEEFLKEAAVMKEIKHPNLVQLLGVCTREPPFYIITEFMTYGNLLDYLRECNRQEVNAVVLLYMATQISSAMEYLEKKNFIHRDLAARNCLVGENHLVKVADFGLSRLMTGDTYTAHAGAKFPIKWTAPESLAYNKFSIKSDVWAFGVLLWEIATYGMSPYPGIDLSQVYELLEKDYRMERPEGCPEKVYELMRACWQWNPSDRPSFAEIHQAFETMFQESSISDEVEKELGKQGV
assay overview: Caliper ABL1 (64-515) assay (microfluidic mobility shift)
Format: biochemical
Respond numerically; units are nM and should not be typed.

Recorded IC50 (compound Cc1ncccc1-c1cc(C(=O)Nc2ccc(OC(F)(F)Cl)cc2)cnc1N1CC[C@@H](O)C1 [Example 270] ): 0.6

Briefly, IC50 measured for CN(CCO)c1ncc(C(=O)Nc2ccc(OC(F)(F)F)cc2)cc1-c1cncc(F)c1 [Example 154] : 1

Given item O=C(Nc1ccc(OC(F)(F)Cl)cc1)c1cnc(N2CC[C@@H](O)C2)c(-c2cc(F)cnc2Cl)c1 [Example 288] , the value recorded as its IC50 is 1

Reported IC50 ( CN(CCO)c1ncc(C(=O)Nc2ccc(OC(F)(F)Cl)cc2)cc1-c1cncc(F)c1 [Example 180] ) = 0.4

----------
system under test: ABL1 (64-515) (Homo sapiens (Human), UniProt P00519)
assay overview: Radio ABL1 (64-515) assay (radiometric filter-binding)
Format: biochemical
Hi there, I'd appreciate the recorded IC50 for every entry that follows.
Give the number; nM is assumed, so skip it.

Simply: `CC(=O)NC[C@H]1CCN(c2ncc(C(=O)Nc3ccc(OC(F)(F)Cl)cc3)cc2-c2cncnc2)C1` , ABL1 (64-515) (Homo sapiens (Human), UniProt P00519), IC50 = 13

Kindly note: ABL1 (64-515) (Homo sapiens (Human), UniProt P00519), `O=C(Nc1ccc(OC(F)(F)Cl)cc1)c1ccc(N2C[C@H](O)[C@@H](O)C2)c(-c2cncnc2)c1` , IC50 value reported: 1

Entry `N[C@H]1CN(c2ccc(C(=O)Nc3ccc(OC(F)(F)Cl)cc3)cc2-c2cncc(F)c2)C[C@@H]1O` : IC50 on ABL1 (64-515) (Homo sapiens (Human), UniProt P00519) = 1

Measured on ABL1 (64-515) (Homo sapiens (Human), UniProt P00519), `CCN(CCO)c1ncc(C(=O)Nc2ccc(SC(F)(F)F)cc2)cc1-c1cncnc1` has a documented IC50 of 3

Test item `O=C(Nc1ccc(OC(F)(F)F)cc1)c1cnc(N2CC(CO)C2)c(-c2cnc(Cl)c(F)c2)c1` ; ABL1 (64-515) (Homo sapiens (Human), UniProt P00519); reported IC50 was 6

Note to self: IC50 of `Cc1ncc(-c2cc(C(=O)Nc3ccc(OC(F)(F)Cl)cc3)cnc2N2C[C@H](O)[C@@H](O)C2)cn1` with ABL1 (64-515) (Homo sapiens (Human), UniProt P00519) was 2

Form field IC50 for item `O=C(Nc1ccc(OC(F)(F)Cl)cc1)c1cnc(N2CC[C@@H](O)C2)c(-c2cc(F)cnc2F)c1` on ABL1 (64-515) (Homo sapiens (Human), UniProt P00519): 4

Reading of IC50 for `COc1ncc(-c2cc(C(=O)Nc3ccc(OC(F)(F)F)cc3)cnc2N2CC[C@@H](O)C2)cn1` with ABL1 (64-515) (Homo sapiens (Human), UniProt P00519): 3

Param item: `O=C(Nc1ccc(OC(F)(F)F)cc1)c1cnc(N2CCOCC2)c(-c2cncnc2)c1` ; param system: ABL1 (64-515) (Homo sapiens (Human), UniProt P00519); output IC50: 3

----------
system under test: ABL1 (64-515) (Homo sapiens (Human), UniProt P00519)
assay overview: Caliper ABL1 (64-515) assay (microfluidic mobility shift)
Format: biochemical
Give IC50 for every item shown.
Please reply with the bare figure in nM and do not write the unit itself.

The reported IC50 of the molecule CO[C@H]1CN(c2ncc(C(=O)Nc3ccc(OC(F)(F)F)cc3)cc2-c2cncc(F)c2)C[C@@H]1N (relative stereo) was 1.7

Memo: `O=C(Nc1ccc(OC(F)(F)F)cc1)c1cnc(N2C3COCC2COC3)c(-c2cncnc2)c1` , reported IC50: 6.5

According to the records, this molecule `N[C@]1(C(F)(F)F)CCN(c2ncc(C(=O)Nc3ccc(OC(F)(F)Cl)cc3)cc2-c2cncnc2)C1` displays IC50 of 0.7

The molecule `CN(C)[C@H]1CN(c2ncc(C(=O)Nc3ccc(OC(F)(F)F)cc3)cc2-c2cncc(F)c2)C[C@@H]1O` showed IC50 equal to 1.4

So, `NC1CN(c2ncc(C(=O)Nc3ccc(OC(F)(F)F)cc3)cc2-c2cncc(F)c2)C1` ? Its IC50 was 2.6

IC50 recorded for this molecule, `CC(F)(F)Oc1ccc(NC(=O)c2cnc(N3CC[C@@H](O)C3)c(-c3cncc(C#N)c3)c2)cc1` , is 6.8

Item: O=C(Nc1ccc(OC(F)(F)Cl)cc1)c1cnc(N2C[C@H](CO)[C@@H](O)C2)c(-c2cncnc2)c1 (relative stereo) | IC50: 1.3

Summary for this molecule, `O=C(Nc1ccc(OC(F)(F)F)cc1)c1cnc(N2CC[C@@H](O)C2)c(-c2cc(F)nc(F)c2)c1` : IC50 is 4.5

// field: IC50; key: NCC1CN(c2ncc(C(=O)Nc3ccc(OC(F)(F)F)cc3)cc2-c2cncc(F)c2)CC1O (centres unmarked) ; value = 1.2

Value of IC50 reported for the molecule `N#Cc1cc(F)cc(-c2cc(C(=O)Nc3ccc(OC(F)(F)Cl)cc3)cnc2N2CC[C@@H](O)C2)c1` is 0.7

// `O=C(Nc1ccc(OC(F)(F)F)cc1)c1ccc(N2C[C@H](O)[C@@H](O)C2)c(-c2cccnc2)c1` : IC50 value = 2.8

Field IC50 (entry `Cc1ccncc1-c1cc(C(=O)Nc2ccc(OC(F)(F)Cl)cc2)cnc1N1CC[C@@H](O)C1` ) reads 0.2

Input `CCN(CCO)c1ncc(C(=O)Nc2ccc(OC(F)(F)Cl)cc2)cc1-c1cncnc1` . Output IC50: 0.6

Value of IC50 reported for the molecule `O=C(Nc1ccc(SC(F)(F)Cl)cc1)c1cnc(N2CC[C@@H](O)C2)c(-c2cncnc2)c1` is 0.4

// field: IC50; key: `O=C(Nc1ccc(OC(F)(F)Cl)cc1)c1cnc(N2C[C@@H](O)[C@@H](O)C2)c(-c2cncc(F)c2)c1` ; value = 0.6

molecule `Cc1ccc(F)cc1-c1cc(C(=O)Nc2ccc(OC(F)(F)Cl)cc2)cnc1N1CC[C@@H](O)C1` , IC50 observed: 3

IC50 in this record for `Cc1ncc(-c2cc(C(=O)Nc3ccc(OC(F)(F)Cl)cc3)ccc2N2C[C@H](O)[C@@H](O)C2)cn1` : 2.2

Recorded result, `O=C(Nc1ccc(OC(F)(F)Cl)cc1)c1cnc(N2CC[C@@H](CO)[C@@H](O)C2)c(-c2cncnc2)c1` , IC50: 0.6

Value of IC50 reported for the molecule `CN(CCO)c1ncc(C(=O)Nc2ccc(SC(F)(F)F)cc2)cc1-c1cncc(F)c1` is 0.4

Lab note: measured IC50 of `NC[C@@H]1CCN(c2ncc(C(=O)Nc3ccc(OC(F)(F)Cl)cc3)cc2-c2cncnc2)C1` was 0.3

IC50 reading for `O=C(Nc1ccc(OC(F)(F)F)cc1)c1cnc(N2CC(CO)C2)c(-c2cccnc2)c1` : 0.6

In plain terms, `N#Cc1cncc(-c2cc(C(=O)Nc3ccc(OC(F)(F)F)c(F)c3)cnc2N2CC[C@H](CO)C2)c1` has a documented IC50 of 0.9

The molecule listed as `N[C@]1(C(F)(F)F)CCN(c2ncc(C(=O)Nc3ccc(OC(F)(F)F)cc3)cc2-c2cncnc2)C1` has a reported IC50 of 10

So, `O=C(Nc1ccc(OC(F)(F)F)cc1)c1cnc(N2CC(CO)C2)c(-c2cncc(F)c2)c1` ? Its IC50 was 0.6

The reported value for `N[C@@H]1CCCN(c2ncc(C(=O)Nc3ccc(OC(F)(F)Cl)cc3)cc2-c2cncnc2)C1` in terms of IC50 is 1.1

For this molecule ( `N[C@@H]1[C@H]2CN(c3ncc(C(=O)Nc4ccc(OC(F)(F)F)cc4)cc3-c3cncnc3)C[C@@H]12` ), measured IC50 is 1.6

----------
Can you tell me pIC50 for the items I'm about to list?
system under test: ABL1 (64-515) (Homo sapiens (Human))
assay overview: Radio ABL1 (64-515) assay (radiometric filter-binding)
Type: biochemical
Note: pIC50 values are expressed as the negative base-10 logarithm of concentration in M.

Field pIC50 (entry O=C(Nc1ccc(OC(F)(F)F)cc1)c1ccc(N2C[C@@H](O)[C@@H](O)C2)c(-c2cncnc2)c1 [Example 10] ) reads 8.52

The compound listed as CC(C)(C)Oc1ccc(NC(=O)c2cnc(N3CC[C@@H](O)C3)c(-c3cncnc3)c2)cc1 [Example 219] shows pIC50 equal to 7.80

// sample O=C(Nc1ccc(OC(F)(F)Cl)cc1)c1cnc(N2CCNC3(CC3)C2)c(-c2cncnc2)c1 [Example 256] , its pIC50 was 8.70

The recorded pIC50 for entry O=C(Nc1ccc(OC(F)(F)F)cc1)c1cnc(N2CCNC3(CC3)C2)c(-c2cncnc2)c1 [Example 229] equals 9.00

For reference, reported pIC50 for O=C(Nc1ccc(OC(F)(F)Cl)cc1)c1cnc(N2C[C@H](O)[C@@H](O)C2)c(-c2cncc(F)c2)c1 [Example 265] stands at 8.52
